test: chemical genetic growth profiling, strain panel (AID 1159580);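 note: tested at 20 µM; growth read once vehicle control cultures reached saturation at 30 °C; 1 = growth at the plate median or of vehicle wells; lower values mean less growth of the strain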; conditions: S. cerevisiae deletion strains, growth OD, locus YMR129W, stronger effect = lower value
Among all 5,500 compounds or so, about 2,000 (36%) were called active. Roughly 18% stayed inconclusive and do not appear here. The list shows a part of the results.
PARAMETER: normalized growth

test_smiles=CC(C)c1cccc(C(C)C)c1O parameter="normalized growth" recorded_result=1
test_smiles=COc1nc(NC(C)C)nc(NC(C)C)n1 parameter="normalized growth" recorded_result=1.01
test_smiles=C=CCSSSCC=C parameter="normalized growth" recorded_result=0.98
test_smiles=CSc1nc(NC(C)C)nc(NC(C)C)n1 parameter="normalized growth" recorded_result=0.973
test_smiles=CNC[C@H](O)c1cccc(O)c1 parameter="normalized growth" recorded_result=0.988
test_smiles=C=CCSSCC=C parameter="normalized growth" recorded_result=1.04
test_smiles=CN[C@H]1CC[C@@H](c2ccc(Cl)c(Cl)c2)c2ccccc21 parameter="normalized growth" recorded_result=1.03
